test system: VRK2;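 note: kd values determined as follow-up on hits from a single-replicate KINOMEscan panel screen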
pKd: −log10 of the molar value.

- smilesInput: "CN1C(=O)C(Nc2cc(Cl)c(O)c(Cl)c2)=C(c2ccc(Cl)cc2)C1=O"
  pKd: "< 5.00"

----------
system: TGFBR2; details: concentration: 1 μM, replicates: in singlicate; n = 1
assayReadout: %Inh

- molecule: "Cc1nnc(-c2ccc3ncn(-c4ccc(S(C)=O)cc4)c3c2)o1 (stereo not shown)"
  testTarget: "TGFBR2"
  reportedMeasurement: "38%"
- molecule: "CC(C)(C)c1ccc(C(=O)Nc2cn3cc(-c4ccccc4)ccc3n2)cc1"
  testTarget: "TGFBR2"
  reportedMeasurement: "8%"
- molecule: "Nc1ncnc2c1ncn2-c1ccc(Cl)cc1"
  testTarget: "TGFBR2"
  reportedMeasurement: "6%"
- molecule: "Cc1cc(Nc2nc(-c3cccc(C)n3)nc3ccccc23)ccn1"
  testTarget: "TGFBR2"
  reportedMeasurement: "0%"
- molecule: "O=C1NC(=O)C(c2ccccc2)=C1Nc1cccc(O)c1"
  testTarget: "TGFBR2"
  reportedMeasurement: "0%"
- molecule: "COc1cc(Nc2nccc(N3CCC(NC(=O)C(C)c4ccc(Cl)cc4)C3)n2)cc(OC)c1OC (stereo not shown)"
  testTarget: "TGFBR2"
  reportedMeasurement: "0%"
- molecule: "Cl.NS(=O)(=O)c1cccc(Nc2cc(-c3ccc(F)cc3)n[nH]2)c1"
  testTarget: "TGFBR2"
  reportedMeasurement: "1%"

----------
Recorded measurements of %Inh, one per entry
tested on: ERK1; construct: gene MAPK3; details: concentration: 1 μM, replicates: in singlicate; n = 1

- compound: "CCC(=O)c1c(-c2ccccc2)c2cc(Cl)ccc2c(=O)n1Cc1ccc(C(=O)O)cc1"
  testTarget: "ERK1"
  u: "%"
  %Inh: 0
- compound: "O=C(Nc1ccc2c(c1)OCO2)NC1CCN(c2ccnc(NCc3ccc(F)cc3)n2)CC1 [GSK1379859]"
  testTarget: "ERK1"
  u: "%"
  %Inh: 0
- compound: "Cc1nnc(-c2ccc(C)c(-c3ccc(C(=O)O)cc3)c2)o1 [GW608005]"
  testTarget: "ERK1"
  u: "%"
  %Inh: 0
- compound: "CCc1nc(-c2cccc(C)c2)c(-c2ccncc2)s1"
  testTarget: "ERK1"
  u: "%"
  %Inh: 0
- compound: "Nc1nc(N)c2nc(-c3ccccc3)[nH]c2n1 [SKF-12778]"
  testTarget: "ERK1"
  u: "%"
  %Inh: 7
- compound: "COc1ccc(-c2cc3c(C)nc(N)nc3n([C@H]3CC[C@H](O)CC3)c2=O)cn1"
  testTarget: "ERK1"
  u: "%"
  %Inh: 0
- compound: "Nc1nc(-c2ccccc2F)c(-c2ccnc3ccccc23)s1 [GW560459]"
  testTarget: "ERK1"
  u: "%"
  %Inh: 10
- compound: "Nc1nccc2scc(-c3ccc4c(c3)CCN4C(=O)Cc3ccccc3)c12 [GSK2576924]"
  testTarget: "ERK1"
  u: "%"
  %Inh: 0
- compound: "CCn1c(-c2nonc2N)nc2ccccc21 [SB-693162/GW549034]"
  testTarget: "ERK1"
  u: "%"
  %Inh: 0
- compound: "Cc1ccc(-c2ccc3c(ccc4sc5c(c43)NC[C@@H](C)N=C5N(C)C)n2)cn1"
  testTarget: "ERK1"
  u: "%"
  %Inh: 0
- compound: "COC(=O)c1c(-c2ccccc2)c2cc(C)ccc2c(=O)n1Cc1ccccc1"
  testTarget: "ERK1"
  u: "%"
  %Inh: 0
- compound: "COc1cccc(-n2cnc3c(N)ncnc32)c1 [SKF-97416]"
  testTarget: "ERK1"
  u: "%"
  %Inh: 0
- compound: "O=C(Nc1n[nH]c2nc(-c3ccccc3)c(Cl)cc12)C1CC1 [SB-734909]"
  testTarget: "ERK1"
  u: "%"
  %Inh: 0
- compound: "COc1cccc(C2=C(Nc3cccc(C(=O)O)c3)C(=O)NC2=O)c1 [SB-390770]"
  testTarget: "ERK1"
  u: "%"
  %Inh: 0
- compound: "COc1ccc(CNC(=O)NC2CCN(c3ccnc(Nc4ccc(F)cc4)n3)C2)cc1 (stereo not shown) [GSK1379706]"
  testTarget: "ERK1"
  u: "%"
  %Inh: 6
- compound: "COc1ccc(-n2cnc3c(N)ncnc32)cc1 [SKF-97236]"
  testTarget: "ERK1"
  u: "%"
  %Inh: 14
- compound: "COc1ccc(-c2cc3c(C)nc(N)nc3n([C@H]3CC[C@H](OCCO)CC3)c2=O)cn1"
  testTarget: "ERK1"
  u: "%"
  %Inh: 0
- compound: "Cc1cccc(-c2cc(-c3c[nH]nc3-c3ccccn3)ccn2)c1 [GW679395]"
  testTarget: "ERK1"
  u: "%"
  %Inh: 0
- compound: "Cl.c1ccc(Cn2cnc3cc(Nc4ncnc5ccccc45)ccc32)cc1 [GW272142]"
  testTarget: "ERK1"
  u: "%"
  %Inh: 0
